# experimental-target: T1, Human Ang-2FD-hFc (human)
# T1 construct: also called dimeric human Ang-2FD; human Ang-2FD protein conjugated to human IgG
# T1 sequence (chain, as listed by the source limits assumed): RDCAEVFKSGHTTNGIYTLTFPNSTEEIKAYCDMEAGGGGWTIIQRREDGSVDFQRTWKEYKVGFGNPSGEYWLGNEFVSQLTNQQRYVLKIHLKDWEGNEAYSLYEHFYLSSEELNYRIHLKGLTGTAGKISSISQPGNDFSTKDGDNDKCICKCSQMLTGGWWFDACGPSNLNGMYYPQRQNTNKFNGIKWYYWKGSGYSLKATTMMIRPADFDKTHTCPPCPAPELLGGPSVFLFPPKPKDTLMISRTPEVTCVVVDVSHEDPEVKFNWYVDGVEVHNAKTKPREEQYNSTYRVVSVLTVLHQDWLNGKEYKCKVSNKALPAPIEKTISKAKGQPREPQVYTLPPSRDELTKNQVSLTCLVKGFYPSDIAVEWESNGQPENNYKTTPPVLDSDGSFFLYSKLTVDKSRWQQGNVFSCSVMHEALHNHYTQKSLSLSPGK
# assay-remarks: blocking ELISA, 16.67 nM antibody, Ang-2FD-hFc to coated hTie-2-mFc
Catalogue of Percent Blocking of Ang-2FD Binding to Tie-2 readings, one per entry.

Completed entries (count: 2):
{"columns": ["binder", "result"],
 "data": [
  ["H1H706P (antibody, human IgG1, V domains shown, Human IgG1) VH: QVQLVESGGGVVQPGRSLRLSCAASGFTFSSYGMHWVRQAPDKGLEWVAVKWDDGSNKYYADSVKGRFTISRDNSKNTLYLQMNSLRAEDTAVYYCAREGPYDFYSGYGAFDIWGQGTMVTVSS VL: DIQMTQSPSSLSASVGDRVTITCRASQGISNYLAWFQQKPGKAPKSLIYAASSLQSGVPSKFSGSGSGTDFTLTISSLQPEDFATYYCQQYNSYPRTFGQGTKVEIK", "97.1%"],
  ["H1H724N (antibody, V domains shown) VH: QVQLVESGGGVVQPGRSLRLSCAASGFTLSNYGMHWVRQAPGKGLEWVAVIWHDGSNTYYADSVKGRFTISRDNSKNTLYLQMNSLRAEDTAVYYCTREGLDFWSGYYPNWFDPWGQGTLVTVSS VL: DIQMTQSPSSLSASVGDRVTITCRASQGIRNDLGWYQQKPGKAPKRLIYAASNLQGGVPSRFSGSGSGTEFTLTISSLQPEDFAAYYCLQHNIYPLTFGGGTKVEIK", "96.6%"]
]}

Now take the following binder into account.
Briefly, Percent Blocking of Ang-2FD Binding to Tie-2 measured for H1H691P (antibody, human IgG1, V domains shown, Human IgG1) VH: EVQLVESGGGLVQPGRSLRLSCAASGFTFDDYAMHWVRQAPGKGLEWVSGISWNSGDIGYADSVKGRFTISRDNAKNSLYLQMNSLRAQDTALYYCAKAYGDYYYFYGMDVWGQGTTVTVS VL: EIVLTQSPGTLSLSPGERATLSCRASQSVSSSYLAWYQQKPGQAPRLLIFSASSRATGIPDRFSGSGSGTDFTLTISRLEPEDFAVYYCQQYDNSLTFGGGTKVEIK : 97.4%
